These data points were gathered from ChEMBL document CHEMBL3885881.

# Organism: Rattus norvegicus
# Protocol Description: DrugMatrix - Regimen: Daily Repeat
# Format: toxicity, organism-based, Sprague-Dawley
# Parameters: regimen Daily Repeat, gender Male, age 6-8 weeks
# Details: in vivo, po, 0 mg/kg, 120 h, tissue Plasma, route oral GAVAGE, dose level Control, time 5 day, […]
Measured Property: ALKALINE PHOSPHATASE (u/L)

| Compound | Units Symbol | Result |
| --- | --- | --- |
| CC(=O)Nc1nnc(S(N)(=O)=O)s1 [ACETAZOLAMIDE] | u/L | 319.17 |
| OCCN1CCN(CCCN2c3ccccc3Sc3ccc(C(F)(F)F)cc32)CC1 | u/L | 359.83 |
| COc1ncnc(NS(=O)(=O)c2ccc(N)cc2)c1OC | u/L | 319.17 |
| CC[C@H](C)C(=O)O[C@H]1C[C@@H](C)C=C2C=C[C@H](C)[C@H](CC[C@@H]3C[C@@H](O)CC(=O)O3)[C@H]21 | u/L | 384.33 |
| CN(CCOc1ccc(CC2SC(=O)NC2=O)cc1)c1ccccn1 (centres undefined) | u/L | 303.67 |
| CC(C)Cc1ccc(CC(=O)O)cc1 | u/L | 354.67 |
| CC(CCc1ccc(O)cc1)NCCc1ccc(O)c(O)c1 (centres undefined) | u/L | 603.33 |
| CCn1cc(C(=O)O)c(=O)c2cc(F)c(N3CCNCC3)nc21 | u/L | 284.5 |
| C#C[C@]1(O)CC[C@H]2[C@@H]3CCc4cc(O)ccc4[C@H]3CC[C@@]21C | u/L | 284.5 |
